System: A498 renal
Assay: NCI-60 one-dose screen, 48 h (100 = growth as untreated, 0 = no growth, -100 = all killed)
Conditions: 10 µM unless noted
Experimental: Growth inhibition of the A498 human tumor cell line is measured as a screen for anti-cancer activity. Cells are grown in 96 well plates and exposed to the test compound for 48 hours. Compounds are tested at a single concentration, which is 10^-5 M for most compounds. The reported endpoint is percent growth (GI% or GIPRCNT), where numbers from 0 - 100% represent growth inhibition, and numbers from -100% - 0 represent cell death. For example, a value of 40 represents 60% growth inhibition. […]
The panel holds about 83,000 compounds, 20% with a hit somewhere; the sample as a whole holds those more often.
Measured growth by item

{"compound": "CCOC(=O)C(COS(C)(=O)=O)(COS(C)(=O)=O)C(=O)OCC", "display-unit": "%", "growth": 97.5}
{"compound": "CC(=O)C[n+]1ccc(C)cc1Sc1ccccc1C", "display-unit": "%", "growth": 127}
{"compound": "Nc1ccn(C2CC(N)C(CO)O2)c(=O)n1 (stereo not drawn)", "display-unit": "%", "growth": 100}
{"compound": "CCCCNC(=O)c1ccc(OCC)cc1", "display-unit": "%", "growth": 94.2}
{"compound": "CC(C)N(CCCC#N)C(C)C", "display-unit": "%", "growth": 79.4}
{"compound": "ClCC(Cl)[C@@H]1CC2C=CC1C2 (stereo partly drawn)", "display-unit": "%", "growth": 80.2}
{"compound": "CN1CCCN(C(c2ccccc2)c2ccc(Cl)cc2)CC1 (stereo not drawn)", "display-unit": "%", "growth": 56.1}
{"compound": "C=CCOc1ccc(Cl)cc1Cl", "display-unit": "%", "growth": 107}
{"compound": "C1=NCCc2ccccc21", "display-unit": "%", "growth": 59.9}
{"compound": "Clc1ccc(-c2noc(/C=C\\c3ccccc3)n2)cc1", "display-unit": "%", "growth": 93.7}
{"compound": "C/C(=N\\N=C(/C)c1cccc([N+](=O)[O-])c1)c1cccc([N+](=O)[O-])c1", "display-unit": "%", "growth": 97.9}
{"compound": "O=S(=O)(O)C(C(I)I)S(=O)(=O)O", "display-unit": "%", "growth": 106}
{"compound": "NC(=S)c1c(N)n(C2OC(CO)C(O)C2O)c2ncnc(N)c12 (stereo not drawn)", "display-unit": "%", "growth": -55.6}

###

System: NCI-H23 lung
Assay: NCI-60 one-dose screen, 48 h (100 = growth as untreated, 0 = no growth, -100 = all killed)
Settings: 10 µM unless noted
This is part of a sample that, as a whole, favours compounds with a hit. Of some 83,000 tested, about 20% had one in any assay.

{"compound": "Clc1ncnc2nc[nH]c12", "display-unit": "%", "growth": 94.4}
{"compound": "CC(C)=CCC[C@@H](C)[C@H]1CC[C@@]2(C)C3=C(CC[C@]12C)[C@@]1(C)CC[C@H](O)C(C)(C)[C@@H]1CC3", "display-unit": "%", "growth": 113}
{"compound": "COCC(N)=O", "display-unit": "%", "growth": 103}
{"compound": "CC1(C)OC(=O)CC1=O", "display-unit": "%", "growth": 98.6}
{"compound": "CC(=O)NC(O)C(Cl)Cl (centres undefined)", "display-unit": "%", "growth": 91.8}
{"compound": "Cc1cc(CO)c(O)c(CO)c1", "display-unit": "%", "growth": 121}
{"compound": "NC(=S)N/N=C/c1ccc(Cl)cc1", "display-unit": "%", "growth": 98.1}
{"compound": "C1=NCCc2ccccc21", "display-unit": "%", "growth": 93.8}
{"compound": "Cc1[nH]c(=S)[nH]c(=O)c1C", "display-unit": "%", "growth": 101}
{"compound": "CC(C)N(CCCC#N)C(C)C", "display-unit": "%", "growth": 104}
{"compound": "CCOP(=O)(NC(c1ccccc1)c1ccccc1)OCC", "display-unit": "%", "growth": 108}
{"compound": "O=C(NCc1ccccc1)/C(=C/c1ccccc1)NC(=O)c1ccccc1", "display-unit": "%", "growth": 104}
{"compound": "COC1OC(CO)C(OC)C(O)C1O (centres undefined)", "display-unit": "%", "growth": 105}
{"compound": "CC1(C)OC2C(CO)OC(n3ccc(=O)[nH]c3=O)C2O1 (centres undefined)", "display-unit": "%", "growth": 102}

###

Measured growth by item
Test system: LOX IMVI melanoma
Test: NCI-60 one-dose screen, 48 h (100 = growth as untreated, 0 = no growth, -100 = all killed)
Settings: 10 µM
About 83,000 compounds went through this panel and 20% of them were active in at least one assay; those are over-represented in the sample as a whole.

{"compound": "c1ccc(Oc2c3ccccc3nc3ccccc23)cc1", "growth / %": 31.3}
{"compound": "O=S(Cc1ccccc1)/C(=C/NC(=S)Nc1ccccc1)c1ccccc1 (configuration not stated)", "growth / %": 90.9}
{"compound": "Nc1ccc2ccccc2c1-c1c(N)ccc2ccccc12", "growth / %": 36.8}
{"compound": "C=C(C)[C@@H]1CC[C@]2(CO)CC[C@]3(C)[C@H](CC[C@@H]4[C@@]5(C)CC[C@H](O)C(C)(C)[C@@H]5CC[C@]43C)[C@@H]12", "growth / %": 32.2}
{"compound": "OCCNc1ccccc1", "growth / %": 94.3}
{"compound": "N#C/C(=C\\c1ccc(C#N)cc1)C(=O)c1ccccc1", "growth / %": 98.8}
{"compound": "O=c1nc(Nc2cccc(Cl)c2)oc2cc(Cl)oc(=O)c12", "growth / %": 73.5}
{"compound": "CCOC(=O)/C(C)=C\\c1ccc(OC)c(OC)c1", "growth / %": 98}
{"compound": "O=S1(=O)c2ccccc2Oc2ccccc21", "growth / %": 102}
{"compound": "Nc1ccccc1SC1CC(=O)N(c2ccc(Cl)c(Cl)c2)C1=O (configuration not stated)", "growth / %": 98.5}
{"compound": "O=C(O)C1CSC(c2ccccc2)N1 (configuration not stated)", "growth / %": 102}
{"compound": "CCOC(=O)c1cc(Cl)c(O)c(Cl)c1", "growth / %": 102}

###

Measured growth by item
Test system: COLO 205 colon
Assay: NCI-60 one-dose screen, 48 h (100 = growth as untreated, 0 = no growth, -100 = all killed)
Details: 10 µM unless noted
Compounds without any hit were thinned out: in the full panel of roughly 83,000, 20% have a hit.
endpoint: growth (%)

{"molecule": "O=S(=O)(O)C(C(I)I)S(=O)(=O)O", "endpoint": "growth", "recorded-value": 110}
{"molecule": "Cc1cc2c(C(C)C)c(O)c(O)c(C=Nc3ccccc3[N+](=O)[O-])c2c(O)c1-c1c(C)cc2c(C(C)C)c(O)c(O)c(C=Nc3ccccc3[N+](=O)[O-])c2c1O", "endpoint": "growth", "recorded-value": 94.7}
{"molecule": "CC12CCC3c4ccc(O)cc4CCC3C1CCC2=O (stereo not given)", "endpoint": "growth", "recorded-value": 103}
{"molecule": "O=[N+]([O-])c1ccc(-c2nc(N(CCO)CCO)c3ccccc3n2)o1", "endpoint": "growth", "recorded-value": -87.1}
{"molecule": "O=C(O)c1ccccc1Cc1ccc2c(c1)CCCC2", "endpoint": "growth", "recorded-value": 112}

###

Tested on: A549/ATCC NSCLC
Test: NCI-60 one-dose screen, 48 h (100 = growth as untreated, 0 = no growth, -100 = all killed)
Conditions: 10 µM unless noted
Protocol: Growth inhibition of the A549/ATCC human Non-Small Cell Lung tumor cell line is measured as a screen for anti-cancer activity. Cells are grown in 96 well plates and exposed to the test compound for 48 hours. Compounds are tested at a single concentration, which is 10^-5 M for most compounds. The reported endpoint is percent growth (GI% or GIPRCNT), where numbers from 0 - 100% represent growth inhibition, and numbers from -100% - 0 represent cell death. […]
Compounds without any hit were thinned out: in the full panel of roughly 83,000, 20% have a hit.
Measured growth by item

{"compound": "O=C(O)C1CCCN1C(=O)OCc1ccccc1 (stereo not drawn)", "test-system": "A549/ATCC NSCLC", "display-unit": "%", "growth": 93.7}
{"compound": "CCC1CCC(C)NC1 (stereo not drawn)", "test-system": "A549/ATCC NSCLC", "display-unit": "%", "growth": 105}
{"compound": "C=CC(C)C(C)(C)O (stereo not drawn)", "test-system": "A549/ATCC NSCLC", "display-unit": "%", "growth": 94.6}
{"compound": "CCOC(=N)CC(=O)Nc1cccc(C)c1Cl", "test-system": "A549/ATCC NSCLC", "display-unit": "%", "growth": 106}
{"compound": "Cn1c(=O)c2[nH]c(CCCCC(=O)O)nc2n(C)c1=O", "test-system": "A549/ATCC NSCLC", "display-unit": "%", "growth": 103}
{"compound": "CC(=O)OC(C)c1cccc(C#N)c1 (stereo not drawn)", "test-system": "A549/ATCC NSCLC", "display-unit": "%", "growth": 98.6}
{"compound": "O=C(CCl)Oc1ccc([N+](=O)[O-])cc1", "test-system": "A549/ATCC NSCLC", "display-unit": "%", "growth": 108}
{"compound": "O=S(=O)(O)c1ccc(O)c(C2CCCCC2)c1", "test-system": "A549/ATCC NSCLC", "display-unit": "%", "growth": 96.6}
{"compound": "CC(=O)NC(CCC(=O)c1ccccc1)C(=O)O (stereo not drawn)", "test-system": "A549/ATCC NSCLC", "display-unit": "%", "growth": 63.3}
{"compound": "COc1ccc(Br)c2c1C(=O)CC2", "test-system": "A549/ATCC NSCLC", "display-unit": "%", "growth": 122}
{"compound": "Cc1ccc(S(=O)(=O)CCCl)cc1", "test-system": "A549/ATCC NSCLC", "display-unit": "%", "growth": 89.5}
{"compound": "Cc1ccc2nc(-c3ccc(N=Cc4ccccc4O)cc3)sc2c1", "test-system": "A549/ATCC NSCLC", "display-unit": "%", "growth": 71.9}
{"compound": "O=C(O)c1ccc([N+](=O)[O-])cc1S(=O)(=O)O", "test-system": "A549/ATCC NSCLC", "display-unit": "%", "growth": 97.2}
{"compound": "COc1ccc(C2CCCCC2=O)cc1 (stereo not drawn)", "test-system": "A549/ATCC NSCLC", "display-unit": "%", "growth": 104}
{"compound": "O=C(NCc1ccccc1)/C(=C/c1ccccc1)NC(=O)c1ccccc1", "test-system": "A549/ATCC NSCLC", "display-unit": "%", "growth": 85.4}
{"compound": "COc1ccc(C(=O)C(=O)c2ccccc2)cc1", "test-system": "A549/ATCC NSCLC", "display-unit": "%", "growth": 104}
{"compound": "Cc1ccnc(Nc2nc3ccccc3[nH]2)n1", "test-system": "A549/ATCC NSCLC", "display-unit": "%", "growth": 108}
{"compound": "CN1CCCN(C(c2ccccc2)c2ccc(Cl)cc2)CC1 (stereo not drawn)", "test-system": "A549/ATCC NSCLC", "display-unit": "%", "growth": 107}
{"compound": "Cn1c(=O)[nH]c2ccccc2c1=O", "test-system": "A549/ATCC NSCLC", "display-unit": "%", "growth": 100}
{"compound": "CC(=O)O[C@H]1CC[C@]2(C)C3=C(C(=O)C[C@H]2C1(C)C)[C@]1(C)CC[C@H]([C@H](C)CCC(=O)O)[C@@]1(C)CC3=O", "test-system": "A549/ATCC NSCLC", "display-unit": "%", "growth": 101}
{"compound": "NNC(=O)c1ccccc1N", "test-system": "A549/ATCC NSCLC", "display-unit": "%", "growth": 120}
{"compound": "O=c1[nH]c(=O)c2cc(Cl)cc(Cl)c2[nH]1", "test-system": "A549/ATCC NSCLC", "display-unit": "%", "growth": 108}
{"compound": "Cc1ccc(O)c(N)c1", "test-system": "A549/ATCC NSCLC", "display-unit": "%", "growth": 98.7}
{"compound": "CCCCN(C=S)CCCC", "test-system": "A549/ATCC NSCLC", "display-unit": "%", "growth": 86.4}
{"compound": "Cc1ccc(NC(=S)N2CCOCC2)cc1C", "test-system": "A549/ATCC NSCLC", "display-unit": "%", "growth": 96.8}
{"compound": "CS(=O)CC(=N\\O)/C(CS(C)=O)=N\\O (stereo not drawn)", "test-system": "A549/ATCC NSCLC", "display-unit": "%", "growth": 97.4}
{"compound": "C=C1CC2(OC1=O)C(=O)N(C)c1ccc(I)cc12 (stereo not drawn)", "test-system": "A549/ATCC NSCLC", "display-unit": "%", "growth": -19.3}
{"compound": "OCC(O)COc1ccc(Cl)cc1Cl (stereo not drawn)", "test-system": "A549/ATCC NSCLC", "display-unit": "%", "growth": 72.6}

meta.source: PubChem BioAssay (NCI)
